B1: GAGE1 (parent)
chain: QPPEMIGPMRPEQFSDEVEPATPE

- Variants of: B1
- assayOverview: protein stability index of a GFP-peptide fusion (GPS, HEK-293T) (PSI 1-6); higher = more stable;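 further: lentivirally expressed fusions sorted by FACS into six bins by GFP to DsRed ratio, PSI derived from sequencing read proportions per bin multiplied by bin number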
- protocolConditions: c terminus: a fixed tail appended
resultType: protein stability index
Please give the numeric answer without any surrounding text.

Recorded protein stability index for P3Q , please?
5.51

Likewise for D16Y ?
5.43

Likewise for M5H ?
5.5

Likewise for I6A ?
5.59

Likewise for P11M ?
4.9

Likewise for D16C ?
4.96

Likewise for G7H ?
5.48

Likewise for G7I ?
5.14

Likewise for I6S ?
6

Likewise for E17K ?
5.12

Likewise for M9L ?
5.31

Likewise for M9Y ?
5.5

Likewise for F14E ?
5.49

Likewise for M5P ?
5.9

Likewise for P20C ?
4.84

Likewise for E19A ?
5.03

Likewise for S15D ?
4.57

Likewise for P23E ?
4.81

Likewise for Q13R ?
5.58

Likewise for E24C ?
4.6

Likewise for E24N ?
5.18

Likewise for A21H ?
4.66

Likewise for M5F ?
5.32

Likewise for M9R ?
5.86

Likewise for Q13K ?
5.34

Likewise for V18D ?
4.79

Likewise for P8I ?
5.09

Likewise for A21P ?
4.6

Likewise for E19N ?
5.06

Likewise for F14V ?
5.48

Likewise for P3C ?
5.44
